B1: CD2-associated protein, residues 109 to 169; numbered along this chain, Q9Y5K6 (parent)
chain: KKRQCKVLFEYIPQNEDELELKVGDIIDINEEVEEGWWSGTLNNKLGLFPSNFVKELEVTD

# Variants of: B1
# measurement.notes: abundance fitness (aPCA) (normalised: wild type 0, dead -1); higher = more abundant; growth selection in yeast, the domain comes from the species named
# stated.conditions: Homo sapiens
Hi, to clarify the labels: y covers abundance fitness from -0.3 upward, n covers anything below -0.3.

Problem: hey, is abundance fitness for this one >= -0.3? KKRQCKVLFEYIPQNEDELELKVGDIIDIQEEVEEGWWSGTLNNKLGLFPSNFVKELEVTD [N30Q]
Result: y

Problem: abundance fitness >= -0.3 for KKRQCKVLFEYIPQNEDELELKVGDIIDINEEVEEGWWSGTLNNALGLFPSNFVKELEVTD [K45A] ?
Result: n

Problem: Could you verify whether the entry KKRQCKVLFEYIPQNEDELELKVGDIIDINEEVEEGWWSGGLNNKLGLFPSNFVKELEVTD [T41G] shows abundance fitness of no less than -0.3?
Result: n

Problem: Reported abundance fitness at or above -0.3? KKRQCKVLFEYIPQNEDELELKVGDIIDINEEVEEGWWSGTLNNKLGLFPSNFGKELEVTD [V54G]
Result: n

Problem: Does the variant KKRQCKVLFEYIPQNEDELELKVGDIIDICEEVEEGWWSGTLNNKLGLFPSNFVKELEVTD [N30C] have recorded abundance fitness that is -0.3 or more?
Result: y

Problem: Hello, I need to know if KKRQCKVLFEYIPQNEDELELKVGDIIDINEEVEEGWWSGTWNNKLGLFPSNFVKELEVTD [L42W] has measured abundance fitness not below -0.3. Thanks!
Result: n

Problem: Please tell me: is the variant KKRQCKVLFEYIPQNEDELELKVGDIIDINDEVEEGWWSGTLNNKLGLFPSNFVKELEVTD [E31D] at or over -0.3 in terms of abundance fitness?
Result: y

Problem: Hi team, for KKRQCKVLFEYIPQNEDELELKVGDIIDINEEVEEGWWSGTLNNFLGLFPSNFVKELEVTD [K45F] , is the recorded abundance fitness at or above -0.3?
Result: n

Problem: Item KKRQCKVLFEYIPQNEDELELKVGDIIWINEEVEEGWWSGTLNNKLGLFPSNFVKELEVTD [D28W] with abundance fitness of -0.3 or above?
Result: y

Problem: Check if abundance fitness >= -0.3 (inclusive). Item: KKRQCKVLFEYIPQNEDELELKVGDIIDINEEVEEGWKSGTLNNKLGLFPSNFVKELEVTD [W38K]
Result: n

Problem: Exam item: decide whether the reported abundance fitness for KKRQCKVLFEYIPQNEDELELKVGDIIDINEESEEGWWSGTLNNKLGLFPSNFVKELEVTD [V33S] is at least -0.3.
Result: y

Problem: // inclusive: abundance fitness at least -0.3? input: KKRQCKVLFEYIPQNEDELELKVGDIIDINEEVEEGWWSGTLNNKLGLFPSNFVKELEYTD [V59Y]
Result: y

Problem: # check: abundance fitness of KKRQCKVLFEYIPQNEDELELKVGDIIDINEEVEEGWWGGTLNNKLGLFPSNFVKELEVTD [S39G] is greater than or equal to -0.3
Result: n

Problem: Assess whether reported abundance fitness for KKRQCKVLFEYIPQNEDELELKVGDIIDINEEVEEGWWSGTLNNKLGLRPSNFVKELEVTD [F49R] sits at -0.3 or higher.
Result: n

Problem: Hi, just wondering whether KKRQCKVLFEYIPQNEDELELKVGDIIDINEEVECGWWSGTLNNKLGLFPSNFVKELEVTD [E35C] shows abundance fitness of -0.3 or higher.
Result: y

Problem: Please tell me: is the variant KKRQCKVLFEYIPQNEDELELKVGDIIDINEEVEEGWWSGTLNNKLGLFPSNFVKESEVTD [L57S] at or over -0.3 in terms of abundance fitness?
Result: n

Problem: Could you tell me if the measured abundance fitness of KKRQCKVLFEYIPQNEDELELKVGDIIDINEEVEEGWMSGTLNNKLGLFPSNFVKELEVTD [W38M] reaches -0.3 or more?
Result: y

Problem: Form field: abundance fitness at least -0.3? Entry: KKRQCKVLFEYIPQNEDELELKVGDIIDINELVEEGWWSGTLNNKLGLFPSNFVKELEVTD [E32L]
Result: n

Problem: Decide: abundance fitness of KKRQCKVLFEYIPQNEDELELKVGDIIDINEEVEEGWWSGTSNNKLGLFPSNFVKELEVTD [L42S] >= -0.3?
Result: y

Problem: Textbook exercise: given the entry KKRQCKVLFEYIPQNEDELELKVGDIIDINEEVEEGWWSGTLNNKLGLFPSNFVKELDVTD [E58D] , state whether its abundance fitness is greater than or equal to -0.3.
Result: y

Problem: Hi team, for KKRQCKVLFEYIPQNEDELELKVGDIIDINEEVEEGWWSGTLNNKLGLFPKNFVKELEVTD [S51K] , is the recorded abundance fitness at or above -0.3?
Result: y

Problem: Threshold query (abundance fitness >= -0.3) on KKRQCKVLFEYIPQNEDELELKVGDIIDCNEEVEEGWWSGTLNNKLGLFPSNFVKELEVTD [I29C]
Result: n

Problem: Quick check, abundance fitness >= -0.3? KKRQCKVLFEYIPQNEDELELKVGDIIDINEEVEEGWWSGTLNNKLGLFPSNFVKELEVTA [D61A]
Result: y

Problem: Given the entry KKRQCKVLFEYIPQNEDELELKVGDIIDINEEVEEGWWSGTLNNKLGGFPSNFVKELEVTD [L48G] , answer whether its abundance fitness meets or surpasses -0.3.
Result: n

Problem: Dear colleague, could you confirm whether KKRQCKVLFEYIPQNEDELELKVGDIIDINEEVEEGWWSGTLTNKLGLFPSNFVKELEVTD [N43T] has abundance fitness at or above -0.3?
Result: n

Problem: For this variant, is measured abundance fitness -0.3 or higher? KKRQCKVLFEYIPQNEDELELKVGDIIDINEEVEEGWWSGTTNNKLGLFPSNFVKELEVTD [L42T]
Result: y

Problem: Determine whether this variant has abundance fitness no lower than -0.3: KKRQCKVLFEYIPQNEDELELKVGDWIDINEEVEEGWWSGTLNNKLGLFPSNFVKELEVTD [I26W]
Result: n

Problem: Say whether KKRQCKVLFEYIPQNEDELELKVGDIIDINEEVEEGWWSGTLNNKLGLFPMNFVKELEVTD [S51M] shows abundance fitness of -0.3 or more.
Result: y

Problem: Is the recorded value of abundance fitness equal to or greater than -0.3 for this variant? KKRQCKVLFEYIPQNEDELELKVGDIIDINEEMEEGWWSGTLNNKLGLFPSNFVKELEVTD [V33M]
Result: y

Problem: For this variant, is measured abundance fitness -0.3 or higher? KKRQCKVLFEYIPQNEDELELKVGDIIDINEEVEEGWWSGTLNVKLGLFPSNFVKELEVTD [N44V]
Result: n

Problem: Is abundance fitness for KKRQCKVLFEYIPQNEDELELKVGDIIEINEEVEEGWWSGTLNNKLGLFPSNFVKELEVTD [D28E] at or above -0.3?
Result: y

Problem: Could you tell me if the measured abundance fitness of KKRQCKVLFEYIPQNEDELELKVGDIIDKNEEVEEGWWSGTLNNKLGLFPSNFVKELEVTD [I29K] reaches -0.3 or more?
Result: n

Problem: Check this variant for abundance fitness at or above -0.3: KKRQCKVLFEYIPQNEDELELKVGDIIDINEEVEEGWWSGTLNNKVGLFPSNFVKELEVTD [L46V]
Result: y

Problem: Check if abundance fitness >= -0.3 (inclusive). Item: KKRQCKVLFEYIPQNEDELELKVGDIIDINEEVEEGWWSGTLNNKLGLFPSMFVKELEVTD [N52M]
Result: y

Problem: API: above_or_equal(metric=abundance fitness, cutoff=-0.3) for item KKRQCKVLFEYIPQNEDELELKVGDIIDINEEVEEGWWSGTLNNKLGLFPSHFVKELEVTD [N52H]
Result: n

Problem: Hi team, for KKRQCKVLFEYIPQNEDELELKVGDIIDINEEVEEGWWSGTLNNKQGLFPSNFVKELEVTD [L46Q] , is the recorded abundance fitness at or above -0.3?
Result: y

Problem: # check: abundance fitness of KKRQCKVLFEYIPQNEDELELKVGDIIDGNEEVEEGWWSGTLNNKLGLFPSNFVKELEVTD [I29G] is greater than or equal to -0.3
Result: n

Problem: // inclusive: abundance fitness at least -0.3? input: KKRQCKVLFEYIPQNEDELELKVGDIIDINEEVEEGWWSGTLNNKLGLFPSNFVKELESTD [V59S]
Result: y

Problem: Textbook exercise: given the entry KKRQCKVLFEYIPQNEDELELKVGDIIDINEEVEEGWWSGILNNKLGLFPSNFVKELEVTD [T41I] , state whether its abundance fitness is greater than or equal to -0.3.
Result: y

Problem: Please indicate if the recorded abundance fitness for KKRQCKVLFEYIPQNEDELELKVGDIIDINEEVEEGWWSGTLNNKLGLFPNNFVKELEVTD [S51N] meets or exceeds -0.3.
Result: n

Problem: Has KKRQCKVLFEYIPQNEDELELKVGDIIDINEEVEEGWWSGTLNNKLGLFHSNFVKELEVTD [P50H] a recorded abundance fitness greater than or equal to -0.3?
Result: y

Problem: Given KKRQCKVLFEYIPQNEDELELKVGDIIDINEEVEEGWWSGTLNNKLGLFPSRFVKELEVTD [N52R] , state whether its abundance fitness is at least -0.3.
Result: y

Problem: Determine whether this variant has abundance fitness no lower than -0.3: KKRQCKVLFEYIPQNEDELELKVGVIIDINEEVEEGWWSGTLNNKLGLFPSNFVKELEVTD [D25V]
Result: n

Problem: Does the reported abundance fitness for KKRQCKVLFEYIPQNEDELELKVGDIIDINEEVSEGWWSGTLNNKLGLFPSNFVKELEVTD [E34S] fall at or above the -0.3 mark?
Result: y
